List of IC50 values.
# Test system: non-small-cell lung cancer cells (Calu1)
# method: In vitro potency (CellTiter-Glo, 96 h), Calu1
# Format: cell-based
# conditions.used: Homo sapiens, Calu-1, 96 h, read-out: Calu1 IC50
# Description: In vitro potency was assessed on multiple cancer cell lines. All cell lines were authenticated by STR profiling at IDEXX Bioresearch and cultured for no more than 2 months after resuscitation. […] After 96 hours, growth inhibition was assessed by CellTiterGlo® (Promega, Madison, WI) and luminescence was measured on a plate reader. In Table 7, IC50 values for ADCs are given in ng/mL. Cell viability was determined by CellTiter-Glo staining after 96 h exposure to ADC. ND=Not Determined. […]
Report only the number, with the unit nM understood.

Study these solved cases before continuing.
compound.structure: CC[C@@]1(O)C(=O)OCc2c1cc1n(c2=O)Cc2c-1nc1cc3c(cc1c2CNCCCS(C)(=O)=O)OCO3
measured.target: non-small-cell lung cancer cells (Calu1)
IC50, nM: 91

compound.structure: CC[C@@]1(O)C(=O)OCc2c1cc1n(c2=O)Cc2c-1nc1cc3c(c(Br)c1c2CN)OCO3
measured.target: non-small-cell lung cancer cells (Calu1)
IC50, nM: 4

We next turn to a different compound, shown below.
QUERY: Fill blank: measured IC50 of the compound CC[C@@]1(O)C(=O)OCc2c1cc1n(c2=O)Cc2c-1nc1cc3c(cc1c2CNCCCO)OCO3 is ____.
RESULT: 839

----------
# System: Hodgkin's lymphoma cells (L540cy)
# method: In vitro potency (CellTiter-Glo, 96 h), L540cy
# Format: cell-based
# conditions.used: read-out: L540cy IC50, Table 29, CPT free drugs, Hodgkin's lymphoma cells L540cy, CellTiter-Glo
Items are presented alongside their recorded IC50.
Just the number in nM, nothing appended.

Sample answers from the record:
compound.structure: CC[C@@]1(O)C(=O)OCc2c1cc1n(c2=O)Cc2c-1nc1cc3c(cc1c2CNC[C@H](O)CN1CCCCC1)OCO3
unit.of.measurement: nM
IC50: 51
//
compound.structure: CC[C@@]1(O)C(=O)OCc2c1cc1n(c2=O)Cc2c-1nc1cc3c(cc1c2CN1CCC(N)CC1)OCO3
unit.of.measurement: nM
IC50: 84
//
compound.structure: CC[C@@]1(O)C(=O)OCc2c1cc1n(c2=O)Cc2c-1nc1cc3c(cc1c2CNCCN1CCNCC1)OCO3
unit.of.measurement: nM
IC50: 56
//
compound.structure: CC[C@@]1(O)C(=O)OCc2c1cc1n(c2=O)Cc2c-1nc1cc3c(cc1c2CNCCCN1CCN(C)CC1)OCO3
unit.of.measurement: nM
IC50: 23
//
compound.structure: CC[C@@]1(O)C(=O)OCc2c1cc1n(c2=O)Cc2c-1nc1cc3c(cc1c2CNCCCN1CCNCC1)OCO3
unit.of.measurement: nM
IC50: 6

QUERY: Name the recorded IC50 for CC[C@@]1(O)C(=O)OCc2c1cc1n(c2=O)Cc2c-1nc1cc3c(cc1c2CNC1CCNCC1)OCO3 .
RESULT: 36

QUERY: What about this compound? CC[C@@]1(O)C(=O)OCc2c1cc1n(c2=O)Cc2c-1nc1cc3c(cc1c2CNC[C@@H](O)CN1CCCCC1)OCO3
RESULT: 48

----------
# System: Hodgkin's lymphoma cells (L540cy)
# method: In vitro potency (CellTiter-Glo, 96 h), L540cy
# Type: cell-based
# conditions.used: camptothecin free drug, read-out: L540cy IC50
IC50 by entry:

compound: CC[C@@]1(O)C(=O)OCc2c1cc1n(c2=O)Cc2c-1nc1cc3c(cc1c2CN)OCO3 [AMDCPT, reference compound]
IC50: 1 nM

compound: CC[C@@]1(O)C(=O)OCc2c1cc1n(c2=O)Cc2c-1nc1cc3c(cc1c2CN1CCN(CCNC(=O)OC(C)(C)C)CC1)OCO3
IC50: 62 nM

compound: CC[C@@]1(O)C(=O)OCc2c1cc1n(c2=O)Cc2c-1nc1cc3c(cc1c2CNCCCN(C)C(=O)OC(C)(C)C)OCO3
IC50: 52 nM

compound: CC[C@@]1(O)C(=O)OCc2c1cc1n(c2=O)Cc2c-1nc1cc3c(cc1c2CN1CCC(NC(=O)OC(C)(C)C)CC1)OCO3
IC50: 15 nM

compound: CC[C@@]1(O)C(=O)OCc2c1cc1n(c2=O)Cc2c-1nc1cc3c(cc1c2CNC1CCN(C(=O)OC(C)(C)C)CC1)OCO3
IC50: 15 nM

compound: CC[C@@]1(O)C(=O)OCc2c1cc1n(c2=O)Cc2c-1nc1cc3c(cc1c2CNCCCN1CCN(C(=O)OC(C)(C)C)CC1)OCO3
IC50: 80 nM

QUERY: Missing value: IC50, Hodgkin's lymphoma cells (L540cy), entry CC[C@@]1(O)C(=O)OCc2c1cc1n(c2=O)Cc2c-1nc1cc3c(cc1c2CNCCN1CCN(C(=O)OC(C)(C)C)CC1)OCO3 . Fill in?
RESULT: 66 nM

----------
# Tested on: pancreatic cancer cells (BxPC3)
# method: In vitro potency (CellTiter-Glo, 96 h), BxPC3
# Assay type: cell-based
# conditions.used: Homo sapiens, BXPC-3, 96 h, read-out: BxPC3 IC50, camptothecin free drug, 96 h
pIC50: −log10 of the molar value.
class 1 means recorded pIC50 is 7 or above; class 0 means it is below 7.

compound: CC[C@@]1(O)C(=O)OCc2c1cc1n(c2=O)Cc2c-1nc1cc3c(cc1c2CNCCCO)OCO3
category: class 1

compound: CC[C@@]1(O)C(=O)OCc2c1cc1n(c2=O)Cc2c-1nc1cc3c(cc1c2CNCCCS(N)(=O)=O)OCO3
category: class 1

compound: CC[C@@]1(O)C(=O)OCc2c1cc1n(c2=O)Cc2c-1nc1cc3c(cc1c2CNCCCN(C)C)OCO3
category: class 0

compound: CC[C@@]1(O)C(=O)OCc2c1cc1n(c2=O)Cc2c-1nc1cc3c(cc1c2CNCCS(N)(=O)=O)OCO3
category: class 1

compound: CC[C@@]1(O)C(=O)OCc2c1cc1n(c2=O)Cc2c-1nc1cc3c(cc1c2CNCCN1CCN(C)CC1)OCO3
category: class 0

compound: CC[C@@]1(O)C(=O)OCc2c1cc1n(c2=O)Cc2c-1nc1cc3c(cc1c2CNCCCN)OCO3
category: class 0

QUERY: Reported pIC50 reaches at least 7 for CC[C@@]1(O)C(=O)OCc2c1cc1n(c2=O)Cc2c-1nc1cc3c(cc1c2CN(C)C)OCO3 ?
RESULT: class 1

QUERY: Could you do the same for CC[C@@]1(O)C(=O)OCc2c1cc1n(c2=O)Cc2c-1nc1cc3c(cc1c2CNCCCS(C)(=O)=O)OCO3 , please?
RESULT: class 1

QUERY: Now try CC[C@@]1(O)C(=O)OCc2c1cc1n(c2=O)Cc2c-1nc1cc3c(cc1c2CNCC(O)CN1CCCCC1)OCO3 (stereo partly shown) .
RESULT: class 1

----------
# Test system: anaplastic large cell lymphoma cells (Karpas299)
# method: In vitro potency (CellTiter-Glo, 96 h), Karpas299
# Format: cell-based
# conditions.used: Homo sapiens, KARPAS-299, 96 h, CPT free drugs, Table 24; CellTiter-Glo after 96 h exposure; read-out: IC50 (nmol/L) Karpas299
observable: IC50

compound.structure: CC[C@@]1(O)C(=O)OCc2c1cc1n(c2=O)Cc2c-1nc1cc(OC)c(C)c(F)c1c2CN
IC50: > 1000 nmol/L
//
compound.structure: CC[C@@]1(O)C(=O)OCc2c1cc1n(c2=O)Cc2c-1nc1cc(F)c(O)cc1c2CN
IC50: > 1000 nmol/L

Okay, next one:
QUERY: Item under review: CC[C@@]1(O)C(=O)OCc2c1cc1n(c2=O)Cc2c-1nc1cc(F)c(O)c3c1c2CNC3 . Reported IC50?
RESULT: > 1000 nmol/L

----------
# Test system: non-small-cell lung cancer cells (Calu1)
# method: In vitro potency (CellTiter-Glo, 96 h), Calu1
# Format: cell-based
# conditions.used: Homo sapiens, Calu-1, 96 h, read-out: Calu1 IC50
# Lookup of reported IC50 keyed by entry
Write the number in nM without appending the unit.

Completed entries (count: 2):
compound.structure: CC[C@@]1(O)C(=O)OCc2c1cc1n(c2=O)Cc2c-1nc1cc3c(cc1c2CN)CC=C3
IC50 (nM): 129

compound.structure: CCc1c(C)c(F)cc2nc3c(c(CN)c12)Cn1c-3cc2c(c1=O)COC(=O)[C@]2(O)CC
IC50 (nM): 95

Next item in the queue.
QUERY: non-small-cell lung cancer cells (Calu1) / IC50 / CC[C@@]1(O)C(=O)OCc2c1cc1n(c2=O)Cc2c-1nc1cc(F)c(C)c(-c3ccc(CO)s3)c1c2CN : value?
RESULT: 155

// provenance: patent US20240207427A1
